# System: 349418-098-R-PDC complex spheroid growth
# Protocol Description: Anticancer human tumor 349418-098-R-PDC patient-derived lung adenocarcinoma cell line growth inhibition [AhR]; active = viability on the fitted dose curve at most 10% of control; inactive = the rest
# Settings: second compound 3.16 µM; first compound 0.1 µM
Bench note: report the call from T = active, F = inactive

Here's what some known entries look like.
• COc1cccc2c1C(=O)c1c(O)c3c(c(O)c1C2=O)CC(O)(C(=O)CO)CC3OC1CC(N)C(O)C(C)O1 (stereo not given) + CC(CO)NC(=O)c1cc(-c2ccc(Cl)cc2)nn(-c2cnn(C)c2)c1=O = F
• CC1COCCN1c1cc(C2(S(C)(=N)=O)CC2)nc(-c2ccnc3[nH]ccc23)n1 (stereo not given) + CC(CO)NC(=O)c1cc(-c2ccc(Cl)cc2)nn(-c2cnn(C)c2)c1=O = F
• Cn1ncnc1C1c2n[nH]c(=O)c3cc(F)cc(c23)NC1c1ccc(F)cc1 (stereo not given) + CC(CO)NC(=O)c1cc(-c2ccc(Cl)cc2)nn(-c2cnn(C)c2)c1=O = F

# lookup: test call for CC[C@@]1(O)C(=O)OCc2c1cc1n(c2=O)Cc2cc3c(CN(C)C)c(O)ccc3nc2-1 + Cc1cncc(-c2nc(NCCc3c[nH]c4ccccc34)c3ncn(C(C)C)c3n2)c1
T

Can you look up the reported call for CC1(C)CCC(CN2CCN(c3ccc(C(=O)NS(=O)(=O)c4ccc(NCC5CCOCC5)c([N+](=O)[O-])c4)c(Oc4cnc5[nH]ccc5c4)c3)CC2)=C(c2ccc(Cl)cc2)C1 + Cc1ccccc1N=Nc1ccc(NC(=O)c2ccnn2C)c(C)c1 for me?
F

###

# Test system: 349418-098-R-PDC complex spheroid growth
# Protocol Description: Anticancer human tumor 349418-098-R-PDC cell line growth inhibition [AhR];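 also: spheroids also contain HUVEC endothelial cells and human MSC stroma; spheroids exposed to agents for seven days before luminescence viability read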
# Settings: second compound 1 µM; first compound 0.03 µM; active compounds read low
Simple rule here: viability, T/C less than 40% is YES, otherwise NO.

Please review the entries below; each comes with its answer.
- O=C(C=Cn1cnc(-c2cc(C(F)(F)F)cc(C(F)(F)F)c2)n1)NNc1cnccn1 + Cc1ccccc1N=Nc1ccc(NC(=O)c2ccnn2C)c(C)c1: YES
- CCc1c2c(nc3ccc(O)cc13)-c1cc3c(c(=O)n1C2)COC(=O)[C@]3(O)CC + CC(CO)NC(=O)c1cc(-c2ccc(Cl)cc2)nn(-c2cnn(C)c2)c1=O: YES
- CCN(c1cc(-c2ccc(CN3CCOCC3)cc2)cc(C(=O)NCc2c(C)cc(C)[nH]c2=O)c1C)C1CCOCC1 + Cc1ccccc1N=Nc1ccc(NC(=O)c2ccnn2C)c(C)c1: NO

I'd appreciate it if you could check whether CC(C)CC(NC(=O)C(Cc1ccccc1)NC(=O)c1cnccn1)B(O)O (stereo unspecified) + CC(CO)NC(=O)c1cc(-c2ccc(Cl)cc2)nn(-c2cnn(C)c2)c1=O has viability, T/C smaller than 40%.
YES

Does this compound meet the criterion viability, T/C < 40%? Nc1ncn(C2CC(O)C(CO)S2)c(=O)n1 (stereo unspecified) + Cc1cncc(-c2nc(NCCc3c[nH]c4ccccc34)c3ncn(C(C)C)c3n2)c1
YES

Is viability, T/C strictly under 40% for the entry O=C(C=Cn1cnc(-c2cc(C(F)(F)F)cc(C(F)(F)F)c2)n1)NNc1cnccn1 + Cc1cncc(-c2nc(NCCc3c[nH]c4ccccc34)c3ncn(C(C)C)c3n2)c1 ?
NO
